assayed-target: NLRP3 inflammasome (Mus musculus, UniProt Q8R4B8)
Sequence (Q8R4B8 whole entry): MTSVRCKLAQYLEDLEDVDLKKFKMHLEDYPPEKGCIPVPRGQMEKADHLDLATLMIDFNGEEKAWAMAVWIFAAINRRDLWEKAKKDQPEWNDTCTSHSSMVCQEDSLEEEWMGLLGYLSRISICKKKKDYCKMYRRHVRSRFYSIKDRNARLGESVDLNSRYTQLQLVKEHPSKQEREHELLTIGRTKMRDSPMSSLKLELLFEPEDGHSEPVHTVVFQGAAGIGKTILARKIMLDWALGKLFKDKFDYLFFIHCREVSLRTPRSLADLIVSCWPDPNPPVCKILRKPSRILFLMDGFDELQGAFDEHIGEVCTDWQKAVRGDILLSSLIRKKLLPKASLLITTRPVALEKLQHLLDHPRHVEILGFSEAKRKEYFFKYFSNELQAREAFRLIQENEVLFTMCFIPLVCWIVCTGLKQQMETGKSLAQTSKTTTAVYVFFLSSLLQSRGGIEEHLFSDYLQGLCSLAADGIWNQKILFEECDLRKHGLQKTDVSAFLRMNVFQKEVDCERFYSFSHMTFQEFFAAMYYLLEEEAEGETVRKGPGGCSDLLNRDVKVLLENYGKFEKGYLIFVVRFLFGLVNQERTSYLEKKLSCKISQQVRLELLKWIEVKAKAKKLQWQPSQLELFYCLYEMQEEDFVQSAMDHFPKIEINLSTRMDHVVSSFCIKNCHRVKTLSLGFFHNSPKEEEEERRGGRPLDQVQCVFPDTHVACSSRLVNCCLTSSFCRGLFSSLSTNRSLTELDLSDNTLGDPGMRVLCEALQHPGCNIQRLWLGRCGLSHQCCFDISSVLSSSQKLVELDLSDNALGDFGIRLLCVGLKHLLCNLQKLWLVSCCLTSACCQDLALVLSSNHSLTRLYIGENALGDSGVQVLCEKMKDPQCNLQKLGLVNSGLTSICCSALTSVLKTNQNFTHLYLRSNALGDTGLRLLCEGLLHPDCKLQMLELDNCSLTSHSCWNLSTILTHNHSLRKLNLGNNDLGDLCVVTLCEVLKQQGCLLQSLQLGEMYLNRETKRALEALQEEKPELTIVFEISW
measurement-setup: IL-1β release, LPS/ATP
endpoint-name: decrease in inhibitory potency compared to 8

structure_smiles_string=COC(=O)c1ccc(-c2cn(Cc3cc(Cl)ccc3OC)nn2)c(C)c1 data_value="3–4 fold"
structure_smiles_string=COC(=O)c1ccc(-c2cn(Cc3cc(Cl)ccc3OC)nn2)c(F)c1 data_value="3–4 fold"
structure_smiles_string=COC(=O)c1ccc(-c2cn(Cc3cc(F)ccc3OC)nn2)cc1 data_value="2–3 fold"
structure_smiles_string=COC(=O)c1ccc(-c2cn(Cc3cc(Br)ccc3OC)nn2)cc1 data_value="2–3 fold"
structure_smiles_string=COC(=O)c1ccc(-c2cn(Cc3cc(Cl)ccc3O)nn2)cc1 data_value="~ 5 fold"
